All values here come from ChEMBL document CHEMBL1121459.

- METHOD: physchem
- MEASUREMENT CONTEXT: octanol/water
- Description: Partition coefficient (logP)
QUANTITY MEASURED: logP

# count of solved cases: 8
molecule=OCC(O)CO quantity_measured=logP value_observed=-1.75
molecule=Cc1cc(N2C(N)=NC(N)=NC2(C)C)ccc1OCc1cccc(C(N)=O)c1 quantity_measured=logP value_observed=-2.46
molecule=O=NN(CCCl)C(=O)NC1CCCCC1 quantity_measured=logP value_observed=2.83
molecule=O=C1NC2(CCCCC2)C(=O)N1CCN(CCCl)CCCl quantity_measured=logP value_observed=2.47
molecule=COc1cccc2c1C(=O)c1c(O)c3c(c(O)c1C2=O)C[C@@](O)(C(=O)CO)C[C@@H]3O[C@H]1C[C@H](N)[C@H](O)[C@H](C)O1 quantity_measured=logP value_observed=-0.1
molecule=O=NN(CCCl)C(=O)NCCCl quantity_measured=logP value_observed=1.54
molecule=OC[C@@H](O)[C@@H](O)[C@H](O)[C@H](O)CO quantity_measured=logP value_observed=-3.1
molecule="O=NN(CCCl)C(=O)NC1CCC(=O)NC1=O (stereo not given)" quantity_measured=logP value_observed=0.37

Exercise: Read off the recorded logP for O=c1[nH]c(=O)n(C2CCCO2)cc1F (stereo not given)
Key: -0.48

Exercise: Read off the recorded logP for `CC[C@]1(O)C[C@H]2CN(CCc3c([nH]c4ccccc34)[C@@](C(=O)OC)(c3cc4c(cc3OC)N(C=O)[C@H]3[C@@](O)(C(=O)OC)[C@H](OC(C)=O)[C@]5(CC)C=CCN6CC[C@]43[C@@H]65)C2)C1`
Key: 2.8

Exercise: Read off the recorded logP for `O=c1[nH]cc(F)c(=O)[nH]1`
Key: -0.95

Exercise: Read off the recorded logP for `Cc1ncc([N+](=O)[O-])n1CCO`
Key: -0.16

Exercise: Read off the recorded logP for `O[C@@H]1CO[C@H]2[C@@H]1OC[C@H]2O`
Key: -1.29

Exercise: Read off the recorded logP for `CCc1nc(N)nc(N)c1-c1ccc(Cl)c(Cl)c1`
Key: 3.19

Exercise: Read off the recorded logP for OC(CBr)C(O)C(O)C(O)CBr (stereo not given)
Key: -0.29

* * *

We begin with a simple list: items and their reported logP.
- MEASUREMENT CONTEXT: octanol/water
- Description: Partition coefficient (logP)
Answer with a number only.

molecule="COc1cc([C@@H]2c3cc4c(cc3[C@@H](O[C@@H]3O[C@@H]5CO[C@@H](c6cccs6)O[C@H]5[C@H](O)[C@H]3O)[C@H]3COC(=O)[C@H]23)OCO4)cc(OC)c1O [TENIPOSIDE]" quantity_measured=logP value_observed=2.8
molecule="O=C1OC(C(O)CO)C(O)=C1O (centres undefined)" quantity_measured=logP value_observed=-4.04

Exercise: Read off the recorded logP for `CN1CC(=O)NC1=N`
Key: -1.77

Exercise: Read off the recorded logP for `NC(N)=O`
Key: -2.8
